Biological target: KRAS G12S (Homo sapiens, UniProt P01116+P62937, G12S)
Sequence (P01116 1-169 isoform P01116-2 G12S limits assumed): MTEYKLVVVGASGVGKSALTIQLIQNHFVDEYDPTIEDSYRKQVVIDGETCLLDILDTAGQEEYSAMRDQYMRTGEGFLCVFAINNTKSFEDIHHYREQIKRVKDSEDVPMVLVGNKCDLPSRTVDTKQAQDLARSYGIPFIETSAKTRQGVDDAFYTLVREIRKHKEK
Sequence (P62937 whole entry): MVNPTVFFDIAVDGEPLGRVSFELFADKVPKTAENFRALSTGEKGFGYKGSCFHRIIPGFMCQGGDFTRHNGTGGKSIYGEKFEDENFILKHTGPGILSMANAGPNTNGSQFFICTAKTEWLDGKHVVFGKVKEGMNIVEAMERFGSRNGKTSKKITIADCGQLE
Assay: Ras-Raf disruption / FRET / MOA assay (BRAF RBD)
Type: biochemical
Conditions: Ras-Raf disruption, with Cyclophilin A; read-out: KRAS G12S FRET data IC50
propertyMeasured: IC50

CCn1c(-c2cccnc2[C@H](C)OC)c2c3cc(ccc31)-c1csc(n1)C[C@H](NC(=O)[C@H](C(C)C)N(C)C(=O)N1CC(N(C)C(=O)[C@@H]3CN3)C1)C(=O)N1CCC[C@H](N1)C(=O)OCC(C)(C)C2 (atropisomer, axis not shown) : 100 to 1000 nM

// for each compound below, give its IC50
1. CCn1c(-c2cccnc2[C@H](C)OC)c2c3cc(ccc31)-c1cc(O)cc(c1)C[C@H](NC(=O)[C@H](C1CCCC1)N1CC[C@]3(CCN(C(=O)[C@H]4CN4)C3)C1=O)C(=O)N1CCC[C@H](N1)C(=O)OCC(C)(C)C2
2. CCn1c(-c2cccnc2[C@H](C)OC)c2c3cc(ccc31)-c1cc(O)cc(c1)C[C@H](NC(=O)[C@H](C(C)C)N1CC[C@@]3(CCN(C(=O)[C@@H]4N[C@@H]4C4CC4)C3)C1=O)C(=O)N1CCC[C@H](N1)C(=O)OCC(C)(C)C2
3. CCn1c(-c2cccnc2[C@H](C)OC)c2c3cc(ccc31)-c1cc(O)cc(c1)C[C@H](NC(=O)[C@H](C(C)C)N1CC[C@@]3(CCN(C[C@@H]4CN4)C3)C1=O)C(=O)N1CCC[C@H](N1)C(=O)OCC(C)(C)C2

OUT:
10 to 100 nM
100 to 1000 nM
100 to 1000 nM

----------
Task for the reader: assign each of the following molecules its reported pIC50.
Target: NRAS G12C (Homo sapiens, UniProt P01111+P62937, G12C)
Sequence (P01111 whole entry G12C, one chain of several): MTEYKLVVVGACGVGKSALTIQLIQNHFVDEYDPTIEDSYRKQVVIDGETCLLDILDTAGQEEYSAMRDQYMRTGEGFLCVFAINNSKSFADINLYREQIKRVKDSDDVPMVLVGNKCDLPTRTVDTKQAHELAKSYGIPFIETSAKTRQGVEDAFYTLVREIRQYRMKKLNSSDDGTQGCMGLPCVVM
Assay: Ras-Raf disruption / FRET / MOA assay (BRAF RBD)
Type: biochemical
Details: NRAS G12C; read-out: NRAS G12C FRET data IC50
pIC50: −log10 of the molar value.

Illustrative cases are given below, each with its answer.
CCn1c(-c2cccnc2[C@H](C)OC)c2c3cc(ccc31)-c1cc(O)cc(c1)C[C@H](NC(=O)[C@H](C(C)C)N1CCC3(CCN(C(=O)[C@@H]4CN4)C3)C1=O)C(=O)N1CCC[C@H](N1)C(=O)OCC(C)(C)C2 (stereo partly shown) : > 8.00
CCn1c(-c2cccnc2[C@H](C)OC)c2c3cc(ccc31)-c1cc(O)cc(c1)C[C@H](NC(=O)[C@H](C(C)C)N(C)C(=O)N(C)C1CN(C(=O)[C@H]3CN3)C1)C(=O)N1CCC[C@H](N1)C(=O)OCC(C)(C)C2 (atropisomer, axis not shown) : > 8.00
CCn1c(-c2cccnc2[C@H](C)OC)c2c3cc(ccc31)-c1cc(O)cc(c1)C[C@H](NC(=O)[C@H](C(C)C)N1CC[C@]3(CCN(C(=O)[C@@H]4N[C@@H]4C4CC4)C3)C1=O)C(=O)N1CCC[C@H](N1)C(=O)OCC(C)(C)C2 : 7.00 to 8.00
CCn1c(-c2cccnc2[C@H](C)OC)c2c3cc(ccc31)-c1cc(O)cc(c1)C[C@H](NC(=O)[C@H](C(C)C)N(C)C(=O)C1CN(S(=O)(=O)[C@@H]3CN3C)C1)C(=O)N1CCC[C@H](N1)C(=O)OCC(C)(C)C2 (single isomer, unassigned) : 6.00 to 7.00
CCn1c(-c2cccnc2[C@H](C)OC)c2c3cc(ccc31)-c1cc(O)cc(c1)C[C@H](NC(=O)[C@@H](COC1CN(C(=O)[C@H]3CN3)C1)C(C)C)C(=O)N1CCC[C@H](N1)C(=O)OCC(C)(C)C2 : > 8.00
CCn1c(-c2cnccc2COC)c2c3cc(ccc31)-c1cc(O)cc(c1)C[C@H](NC(=O)[C@H](C(C)C)N(C)C(=O)CN(C)C(=O)[C@H]1[C@@H](C(=O)OC)N1[S@+]([O-])C(C)(C)C)C(=O)N1CCC[C@H](N1)C(=O)OCC(C)(C)C2 (stereo partly shown) : 7.00 to 8.00
CCn1c(-c2cccnc2[C@H](C)OC)c2c3cc(ccc31)-c1csc(n1)C[C@H](NC(=O)[C@H](C(C)C)N(C)C(=O)N(C)CCN(C)C(=O)[C@H]1CN1)C(=O)N1CCC[C@H](N1)C(=O)OCC(C)(C)C2 (atropisomer, axis not shown) : 7.00 to 8.00
CCn1c(-c2cccnc2[C@H](C)OC)c2c3cc(ccc31)-c1cc(O)cc(c1)C[C@H](NC(=O)[C@H](C(C)C)N(C)C(=O)[C@H]1CCCN(C(=O)[C@H]3CN3)C1)C(=O)N1CCC[C@H](N1)C(=O)OCC(C)(C)C2 : > 8.00
CCn1c(-c2cccnc2[C@H](C)OC)c2c3cc(ccc31)-c1cc(O)cc(c1)C[C@H](NC(=O)[C@H](C1CCCC1)N1CC[C@]3(CCN(C(=O)[C@@H]4N[C@@H]4C4CC4)C3)C1=O)C(=O)N1CCC[C@H](N1)C(=O)OCC(C)(C)C2 : 7.00 to 8.00
CCn1c(-c2cccnc2[C@H](C)OC)c2c3cc(ccc31)-c1cc(O)cc(c1)C[C@H](NC(=O)[C@H](C(C)C)N(C)C(=O)N1CC[C@H](N(C)C(=O)[C@H]3CN3)C1)C(=O)N1CCC[C@H](N1)C(=O)OCC(C)(C)C2 (atropisomer, axis not shown) : 7.00 to 8.00

// for each molecule below, give its pIC50
1. CCn1c(-c2cccnc2[C@H](C)OC)c2c3cc(ccc31)-c1cc(O)cc(c1)C[C@H](NC(=O)[C@H](C(C)C)N(C)C(=O)[C@H]1C[C@H](NC(=O)[C@@H]3CN3)C1)C(=O)N1CCC[C@H](N1)C(=O)OCC(C)(C)C2
2. CCn1c(-c2cccnc2[C@H](C)OC)c2c3cc(ccc31)-c1csc(n1)C[C@H](NC(=O)[C@H](C(C)C)N(C)C(=O)N1CCN(C(=O)[C@H]3CN3)[C@@H](C)C1)C(=O)N1CCC[C@H](N1)C(=O)OCC(C)(C)C2
3. CCn1c(-c2cccnc2[C@H](C)OC)c2c3cc(ccc31)-c1cccc(c1)C[C@H](NC(=O)[C@H](C(C)C)N(C)C(=O)[C@H]1CC[C@H](N=C=NC(C)C)C1)C(=O)N1CCC[C@H](N1)C(=O)OCC(C)(C)C2

OUT:
["> 8.00", "7.00 to 8.00", "7.00 to 8.00"]

// for each molecule below, give its pIC50
1. CCn1c(-c2cnccc2COC)c2c3cc(ccc31)-c1cccc(c1)C[C@H](NC(=O)[C@H](C(C)C)N(C)C(=O)CC(C)(C)N=C=Nc1ccc(OC)cc1)C(=O)N1CCC[C@H](N1)C(=O)OCC(C)(C)C2
2. CCn1c(-c2cccnc2[C@H](C)OC)c2c3cc(ccc31)-c1cccc(c1)C[C@H](NC(=O)[C@H](C(C)C)N(C)C(=O)CCN=C=NCCOC)C(=O)N1CCC[C@H](N1)C(=O)OCC(C)(C)C2
3. CCn1c(-c2cccnc2[C@H](C)OC)c2c3cc(ccc31)-c1cc(O)cc(c1)C[C@H](NC(=O)[C@H](C(C)C)N1CCC3(CCN(C(=O)[C@H]4CN4)C3)C1=O)C(=O)N1CCC[C@H](N1)C(=O)OCC(C)(C)C2 (stereo partly shown)

OUT:
["< 5.00", "7.00 to 8.00", "> 8.00"]

----------
Target: NRAS G12C (Homo sapiens, UniProt P01111+P62937, G12C)
Test: Disruption of BRAF RBD interaction with Ras (FRET / MOA assay, with Cyclophilin A)
Type: biochemical
Conditions: NRAS G12C; read-out: NRAS G12C FRET data IC50
pIC50: −log10 of the molar value.
propertyMeasured: pIC50

C=CC(=O)N1CC[C@H](C(=O)N(C)[C@H](C(=O)N[C@H]2Cc3cccc(c3)-c3ccc4c(c3)c(c(-c3cc(CN(C)C)cnc3[C@H](C)OC)n4CC)CC(C)(C)COC(=O)[C@@H]3CCCN(N3)C2=O)C(C)C)C1 [Example A523] : 5.00 to 6.00

IN: Fill in reported pIC50 for this entry: CCn1c(-c2cccnc2[C@H](C)OC)c2c3cc(ccc31)-c1cc(O)cc(c1)C[C@H](NC(=O)[C@H](C(C)C)N(C)C(=O)[C@H]1CCN(C(=O)CN(C)C)C1)C(=O)N1CCC[C@H](N1)C(=O)OCC(C)(C)C2 [Example A95]
OUT: 7.00 to 8.00

----------
Task for the reader: assign each of the following compounds its reported IC50.
Target: NRAS Q61K (Homo sapiens, UniProt P01111+P62937, Q61K)
Sequence (P01111 whole entry Q61K): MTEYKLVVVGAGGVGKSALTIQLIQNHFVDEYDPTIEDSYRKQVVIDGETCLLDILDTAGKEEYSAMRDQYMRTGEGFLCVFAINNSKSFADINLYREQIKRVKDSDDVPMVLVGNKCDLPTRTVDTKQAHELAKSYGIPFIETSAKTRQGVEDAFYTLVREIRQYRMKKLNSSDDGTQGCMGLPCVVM
Sequence (P62937 whole entry): as the sequence (P62937 whole entry) above
Assay: Disruption of BRAF RBD interaction with Ras (FRET / MOA assay, with Cyclophilin A)
Type: biochemical
Details: NRAS Q61K; read-out: NRAS Q61K FRET data IC50

// for each compound below, give its IC50
1. C=CC(=O)N1CCO[C@H]2CN(C(=O)N(C)[C@H](C(=O)N[C@H]3Cc4cccc(n4)-c4ccc5c(c4)c(c(-c4cccnc4[C@H](C)OC)n5CC(F)(F)F)CC(C)(C)COC(=O)C4CCCN(N4)C3=O)C(C)C)C[C@H]21 (some centres unmarked)
2. CCn1c(-c2cc(C3CCN(C)CC3)cnc2[C@H](C)OC)c2c3cc(ccc31)-c1csc(n1)C[C@H](NC(=O)[C@H](C(C)C)N(C)C(=O)N1CCOCC1)C(=O)N1CCC[C@H](N1)C(=O)OCC(C)(C)C2 (atropisomer, axis not shown)

OUT:
1. 100 to 1000 nM
2. 10 to 100 nM
